experimentalTarget: T1, fibroblast activating protein alpha (FAPα), cell surface-bound on FAP+ cells (FAP over-expressing HT1080 … (human, UniProt Q12884 1-760))
T1 construct: whole, on cells; Target of the flow cytometry and of the immunohistology; also called cell membrane expressed FAP
T1 sequence (looked up): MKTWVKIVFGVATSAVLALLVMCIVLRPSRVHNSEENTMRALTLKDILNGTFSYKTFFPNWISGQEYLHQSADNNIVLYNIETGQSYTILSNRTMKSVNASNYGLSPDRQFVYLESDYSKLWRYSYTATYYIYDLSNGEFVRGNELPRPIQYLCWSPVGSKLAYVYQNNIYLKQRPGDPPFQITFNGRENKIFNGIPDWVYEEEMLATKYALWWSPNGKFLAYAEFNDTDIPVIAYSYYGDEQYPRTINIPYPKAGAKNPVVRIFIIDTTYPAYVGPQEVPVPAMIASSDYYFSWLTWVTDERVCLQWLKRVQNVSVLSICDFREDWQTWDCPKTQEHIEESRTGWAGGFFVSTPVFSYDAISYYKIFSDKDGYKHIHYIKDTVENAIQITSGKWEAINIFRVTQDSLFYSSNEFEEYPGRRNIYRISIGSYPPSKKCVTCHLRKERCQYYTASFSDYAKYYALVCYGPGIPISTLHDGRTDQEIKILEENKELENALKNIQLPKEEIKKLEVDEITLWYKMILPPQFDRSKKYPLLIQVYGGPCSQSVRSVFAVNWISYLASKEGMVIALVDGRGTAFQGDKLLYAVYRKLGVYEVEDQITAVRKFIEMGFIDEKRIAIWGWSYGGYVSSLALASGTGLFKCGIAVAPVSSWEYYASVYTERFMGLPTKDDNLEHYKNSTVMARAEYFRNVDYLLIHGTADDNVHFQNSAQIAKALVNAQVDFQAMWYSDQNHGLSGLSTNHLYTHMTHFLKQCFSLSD
assayMethodText: binding to FAP+ cells, cell analyser, half maximal saturation
pEC50: −log10 of the molar value.
propertyLabel: pEC50

Consider the reported pEC50 for these binders:
Qu. Assign pEC50 to the following record: scFv #34 (VH #34, IgG; VL III43; murine HCDR3 F19) (scFv, Humanised monovalent scFv, detected through the c-myc tag with 9E10; also called clone #34; VH34YOL III43; not shown: c-myc and HIS6 tags (pOPE101), or pIII in the screening ELISA) scFv: QVQLQQSGAEVKKPGSSVKVSCKASGGTFSTHTINWVRQAPGQGLEWMGGIAPMFGTANYAQKFQGRVTITADKSTSTAYMEMSSLRSDDTAVYYCARRRIAYGYDEGHAMDYWGQGTLVTVSSASTKGPKLEEGEFSEARVDIQMTQSPSSLSASTGDRVTITCRASQDISSYLAWYQQAPGKAPHLLMSGATTLQTGVPSRFSGSGSGTDFTLTISSLQAEDVAVYYCQQYYRTPFTFGQGTKLEIKRTVAAPSVFAA
Ans. ~8.22

Qu. Assign pEC50 to the following record: scFv #13 in minibody format (bivalent) (other, also called scFv #13 (as bivalent in minibody format); scFv #13 (minibody format); not shown: hinge-linker-CH3-cmyc-HIS6 of the minibody) QVQLVESGGTLVQPGGSLRLSCAASGFTFSSYAMSWIRQAPGKGLEWVSGISASGGYIDYADSVKGRVTISRDNSKNMAYLQMSSLRAEDTALYYCAKGGNYQMLLDHWGQGTLVTVSSASTKGPKLEEGEFSEARVDIQMTQSPSSLSASTGDRVTITCRASQDISSYLAWYQQAPGKAPHLLMSGATTLQTGVPSRFSGSGSGTDFTLTITSLQSEDFATYYCQQYYIYPPTFGQGTRVEIKRTVAAPSVFAA
Ans. 7.92 to 8.10

Qu. Assign pEC50 to the following record: scFv #18 (VH #18, IgG; VL III43; murine HCDR3 F19) (scFv, Humanised monovalent scFv, detected through the c-myc tag with 9E10; also called clone #18; VH18 YOL III43; not shown: c-myc and HIS6 tags (pOPE101), or pIII in the screening ELISA) scFv: QVQLVQSGAELKKPGSSMKVSCKASGDTFSTYSINWVRQAPGQGLEWMGVINPSGGSTSYAQKFQGRVTMTRDTSTSTVYMELSSLRSEDTAVYYCARRRIAYGYDEGHAMDYWGQGTLVTVSSASTKGPKLEEGEFSEARVDIQMTQSPSSLSASTGDRVTITCRASQDISSYLAWYQQAPGKAPHLLMSGATTLQTGVPSRFSGSGSGTDFTLTISSLQAEDVAVYYCQQYYRTPFTFGQGTKLEIKRTVAAPSVFAA
Ans. ~8.22

More entries:
Qu. Assign pEC50 to the following record: scFv #50 in minibody format (bivalent) (other, Minibody: bivalent homodimeric scFv derivative; also called scFv #50 (as bivalent in minibody format); not shown: hinge-linker-CH3-cmyc-HIS6 of the minibody) QVQLVESGGGLVQPGGSLRLSCAASGFTFSNYWMSWVRQAPGKGLEWVANIKQDGSEKYYVDSVKGRFTISRDNAKNSLYLQMNSLRAEDTAVYYCARGSLCTDGSCPTIGPGPNWGQGTLVTVSSAPTKAPKLEEGEFSEARVDIQMTQSPSSLSASTGDRVTITCRASQDISSYLAWYQQAPGKAPHLLMSGATTLQTGVPSRFSGSGSGTDFTLTITSLQSEDFATYYCQQYYIYPPTFGQGTRVEIKRTVAAPSVFAA
Ans. 7.49
